target: Carbonic anhydrase 9 (Homo sapiens); assay: Inhibition of recombinant human carbonic anhydrase 9 incubated for 10 mins prior to testing by stopped flow CO2 hydrase assay
pKi: −log10 of the molar value.
Measurement kind: pKi

Solved cases below.
Compound	System name	Assay value
NS(=O)(=O)c1ccc(CCN2C(=O)c3ccc([N+](=O)[O-])cc3C2=O)cc1	Carbonic anhydrase 9 (Homo sapiens)	5.79
NS(=O)(=O)c1ccc(CCN2C(=O)c3c(Br)c(Br)c(Br)c(Br)c3C2=O)cc1	Carbonic anhydrase 9 (Homo sapiens)	5.62
NS(=O)(=O)c1ccc(CCN2C(=O)c3cc(Cl)c(Cl)cc3C2=O)cc1	Carbonic anhydrase 9 (Homo sapiens)	6.37

I: NS(=O)(=O)c1ccc(CCN2C(=O)CCC2=O)cc1
II: NS(=O)(=O)c1ccc(CCN2C(=O)c3nccnc3C2=O)cc1
Could you please tell me which of these two has the higher pKi: I or II ? Write down the label attached to your selection.
I
(I: 6.53, II: 5.38)

P: CC(C)(C)c1ccc2c(c1)C(=O)N(CCc1ccc(S(N)(=O)=O)cc1)C2=O
Q: NS(=O)(=O)c1ccc(CCN2C(=O)C3C(C2=O)C2(Cl)C(Cl)=C(Cl)C3(Cl)C2(Cl)Cl)cc1 (centres undefined)
In the pair P and Q , the larger recorded pKi belongs to which? The response must carry the label of the picked entry.
Q
(Q: 6.94, P: 6.34)

a: NS(=O)(=O)c1ccc(CN2C(=O)C3C(C2=O)C2(Cl)C(Cl)=C(Cl)C3(Cl)C2(Cl)Cl)cc1 (centres undefined)
b: NS(=O)(=O)c1ccc(CCN2C(=O)c3cccc([N+](=O)[O-])c3C2=O)cc1
Between these two entries, a and b , state which has the higher pKi. Label of pick, please.
a
(a: 7.77, b: 5.57)

P: Cc1ccc2c(c1)C(=O)N(CCc1ccc(S(N)(=O)=O)cc1)C2=O
Q: NS(=O)(=O)c1ccc(N2C(=O)C3C(C2=O)C2(Cl)C(Cl)=C(Cl)C3(Cl)C2(Cl)Cl)cc1 (centres undefined)
Rank P against Q by their pKi values and give the higher one. Respond with the label that goes with your answer.
Q
(Q: 7.86, P: 6.41)

====

target: UniProt Q16790; assay: Inhibition of recombinant human carbonic anhydrase 9 incubated for 10 mins prior to testing by stopped flow CO2 hydrase assay
Measurement kind: Ki (nM)

Compound structure	System name	Assay value
NS(=O)(=O)c1ccc(CCN2C(=O)c3ccccc3C2=O)cc1	UniProt Q16790	296
NS(=O)(=O)c1ccc(CCN2C(=O)[C@H]3CC=CC[C@H]3C2=O)cc1	UniProt Q16790	296
NS(=O)(=O)c1ccc(CCN2C(=O)C=CC2=O)cc1	UniProt Q16790	274
